Target: human recombinant HDAC6 (Homo sapiens, UniProt Q9UBN7)
Construct: purchased Calbiochem Inc. 382180
Sequence (Q9UBN7 whole entry): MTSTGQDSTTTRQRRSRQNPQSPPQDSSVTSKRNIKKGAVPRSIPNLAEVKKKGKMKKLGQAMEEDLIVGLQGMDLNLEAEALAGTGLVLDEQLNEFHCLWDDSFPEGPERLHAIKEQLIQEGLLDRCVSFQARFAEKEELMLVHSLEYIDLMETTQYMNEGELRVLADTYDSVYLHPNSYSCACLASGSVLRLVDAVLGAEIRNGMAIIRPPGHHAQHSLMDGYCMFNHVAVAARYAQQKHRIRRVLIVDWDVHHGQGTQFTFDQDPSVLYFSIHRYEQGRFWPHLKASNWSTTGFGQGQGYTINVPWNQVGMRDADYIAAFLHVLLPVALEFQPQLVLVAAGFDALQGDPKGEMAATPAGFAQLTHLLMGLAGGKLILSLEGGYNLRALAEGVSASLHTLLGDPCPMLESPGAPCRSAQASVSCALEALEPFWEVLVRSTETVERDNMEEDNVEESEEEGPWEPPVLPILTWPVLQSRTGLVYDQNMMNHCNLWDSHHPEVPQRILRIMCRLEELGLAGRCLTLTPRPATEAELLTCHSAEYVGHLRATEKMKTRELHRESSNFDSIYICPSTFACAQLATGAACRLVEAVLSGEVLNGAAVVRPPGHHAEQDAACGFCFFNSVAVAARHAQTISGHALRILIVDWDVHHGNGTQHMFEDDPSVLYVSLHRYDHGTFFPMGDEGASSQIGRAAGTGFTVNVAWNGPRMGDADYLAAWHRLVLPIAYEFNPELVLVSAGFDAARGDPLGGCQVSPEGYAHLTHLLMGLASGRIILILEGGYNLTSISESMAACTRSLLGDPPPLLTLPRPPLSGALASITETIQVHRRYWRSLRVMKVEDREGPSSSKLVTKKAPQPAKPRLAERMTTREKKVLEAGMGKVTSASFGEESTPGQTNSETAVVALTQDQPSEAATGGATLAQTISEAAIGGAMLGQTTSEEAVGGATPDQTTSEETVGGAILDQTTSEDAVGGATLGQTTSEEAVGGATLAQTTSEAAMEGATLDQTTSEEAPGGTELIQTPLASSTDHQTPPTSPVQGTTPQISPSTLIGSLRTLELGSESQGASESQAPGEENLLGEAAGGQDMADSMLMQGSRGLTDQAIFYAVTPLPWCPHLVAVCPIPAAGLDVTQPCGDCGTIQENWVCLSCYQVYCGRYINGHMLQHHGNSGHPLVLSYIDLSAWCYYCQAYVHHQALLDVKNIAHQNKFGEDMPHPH
Experiment: In vitro HDAC enzyme activity inhibition assay, HDAC6 (HDAC Fluorimetric Drug Discovery Kit)
Type: biochemical
Conditions: HDAC6 versus HDAC1
Procedure: In order to confirm the selectivity of the compounds represented by Chemical Formula I of the present invention to HDAC6 through HDAC1 and HDAC6 enzyme activity inhibition experiments, a comparison experiment was performed using the material that has already been developed as a control group. HDAC enzyme activity was measured using the HDAC Fluorimetric Drug Discovery Kit (Enzo Life Sciences, Inc., BML-AK511, 516). […]
property_measured: HDAC6 Selectivity (fold)
Answer format: numeric, fold implied, no suffix.

Would you please look over these solved cases?
CC(=O)c1cccc(OCc2cn3ccc(-c4nnc(C(F)F)o4)cc3n2)c1 [Compound 3721]: 123
CC(=O)N1CC(C(=O)N(Cc2cn3ccc(-c4nnc(C(F)F)o4)cc3n2)c2cccc(F)c2)C1 [Compound 4197]: 207
Fc1cccc(Cc2cn3ccc(-c4nnc(C(F)F)o4)cc3n2)c1 [Compound 3585]: 386
CCN1CC(C(=O)N(Cc2cn3ccc(-c4nnc(C(F)F)o4)cc3n2)c2ccccc2)C1 [Compound 4159]: 118
CS(=O)(=O)N1CCC(C(=O)N(Cc2cn3ccc(-c4nnc(C(F)F)o4)cc3n2)c2cccc(F)c2)CC1 [Compound 4153]: 363
CCN1CCN(C(=O)N(Cc2cn3ccc(-c4nnc(C(F)F)o4)cc3n2)c2cccc(F)c2)CC1 [Compound 4084]: 183

// recorded HDAC6 Selectivity (fold) for CN(Cc1cn2ccc(-c3nnc(C(F)F)o3)cc2n1)c1ccccc1 [Compound 3725] : 282

Record CCC(=O)N1CC(C(=O)N(Cc2cn3ccc(-c4nnc(C(F)F)o4)cc3n2)c2ccccc2)C1 [Compound 4168] . Reported HDAC6 Selectivity (fold): 125

Looking up FC(F)c1nnc(-c2ccn3cc(CNC4CCCCC4)nc3c2)o1 [Compound 3678] , I see its HDAC6 Selectivity (fold) listed as 170

Noted for FC(F)c1nnc(-c2ccn3cc(Cc4ccc(Cl)cc4)nc3c2)o1 [Compound 3593] : its HDAC6 Selectivity (fold) reads 191

Documented HDAC6 Selectivity (fold) of FC(F)c1nnc(-c2ccn3cc(Cc4ccc5c(c4)OCO5)nc3c2)o1 [Compound 3596] : 160
